Values were extracted from patent US11090304B2.

- experimentalTarget: GDP-bound KRAS protein (aa 1-169), containing both G12C and C118A amino acid substitutions (Homo sapiens, UniProt P01116, C118A/G12C)
- Sequence (P01116 1-169 isoform P01116-2 G12C/C118A): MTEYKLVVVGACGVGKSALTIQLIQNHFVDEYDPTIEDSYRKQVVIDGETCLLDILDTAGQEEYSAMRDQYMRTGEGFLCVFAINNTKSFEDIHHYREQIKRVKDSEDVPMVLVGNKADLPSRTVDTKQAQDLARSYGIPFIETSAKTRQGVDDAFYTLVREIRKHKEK
- assayExplanation: Coupled nucleotide exchange assay (SOS-mediated, AlphaScreen)
- Assay type: biochemical
- runParameters: 2 h compound pre-incubation
propertyLabel: Coupled exchange IC50 (2 h) (µM)

[[record]]
molecule = "C=CC(=O)N1CCN(c2nc(=O)n(-c3c(C)cccc3C)c3nc(-c4c(O)cccc4F)c(Cl)cc23)CC1"
resultnumber = 0.117

[[record]]
molecule = "C=CC(=O)N1CCN(c2nc(=O)n(-c3ccccc3C(C)C)c3c(C)c(-c4c(O)cccc4F)c(Cl)cc23)[C@@H](C)C1 (single isomer, unassigned)"
resultnumber = 0.175

[[record]]
molecule = "C=CC(=O)N1CCN(c2nc(=O)n(CC(C)(C)C)c3nc(-c4ccccc4F)c(Cl)cc23)CC1"
resultnumber = 0.161

[[record]]
molecule = "C=CC(=O)N1CCN(c2nc(=O)n(CC3(C(F)(F)F)CC3)c3nc(-c4c(O)cccc4F)c(Cl)cc23)CC1"
resultnumber = 0.101

[[record]]
molecule = "C=CC(=O)N1CCN(c2nc(=O)n(-c3c(CC)cccc3CC)c3nc(-c4c(F)cccc4F)c(Cl)cc23)[C@@H](C)C1"
resultnumber = 0.054

[[record]]
molecule = "C=CC(=O)N1CCN(c2nc(=O)n(-c3c(CC)cccc3CC)c3nc(-c4ccccc4O)c(Cl)cc23)[C@@H](C)C1"
resultnumber = 0.164

[[record]]
molecule = "C=CC(=O)N1CCN(c2nc(=O)n(-c3ccccc3C(C)C)c3cc(Br)c(Cl)cc23)[C@@H](C)C1 (single isomer, unassigned)"
resultnumber = 0.163

[[record]]
molecule = "C=CC(=O)N1CCN(c2nc(=O)n(-c3c(CC)cccc3CC)c3nc(C4CC4)c(Cl)cc23)[C@@H](C)C1"
resultnumber = 0.112

[[record]]
molecule = "C=CC(=O)N1CCN(c2nc(=O)n(CC(C)(C)C)c3nc(-c4c(O)cccc4F)c(Cl)cc23)CC1"
resultnumber = 0.102

